Reference source: patent US20240025992A1

The binders listed here are annotated with their Kd.
Target: T1, DL3W35, extracellular domain of human DLL3 linked to a C-terminal 6xHis-Tag and a linker (human, UniProt Q9NYJ7 27-479)
T1 construct: also called human DLL3 ECD; huDLL3
T1 sequence: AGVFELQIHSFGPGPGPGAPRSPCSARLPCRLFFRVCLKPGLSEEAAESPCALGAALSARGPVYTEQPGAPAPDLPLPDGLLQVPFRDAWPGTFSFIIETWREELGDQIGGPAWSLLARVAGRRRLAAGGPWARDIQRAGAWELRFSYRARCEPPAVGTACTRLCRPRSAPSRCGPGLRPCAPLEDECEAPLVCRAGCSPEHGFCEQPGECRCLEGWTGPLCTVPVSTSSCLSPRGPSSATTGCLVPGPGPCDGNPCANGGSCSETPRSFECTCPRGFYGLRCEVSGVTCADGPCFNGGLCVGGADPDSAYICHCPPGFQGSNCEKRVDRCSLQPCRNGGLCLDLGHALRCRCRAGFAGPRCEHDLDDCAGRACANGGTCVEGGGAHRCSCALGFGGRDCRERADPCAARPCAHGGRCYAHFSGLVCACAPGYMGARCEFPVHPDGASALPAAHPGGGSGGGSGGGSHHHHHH
Assay: SPR (ProteOn), antibody captured by anti-Fc, DLL3 (DL3W35) titrated
Supply the numeric figure in nM, leaving out any unit text.

Examples with their reported Kd follow.
DL3B570 (Fc fusion, also called DL3B332 scFv-Fc; not shown: wild-type IgG1 Fc domain) scFv: EIVLTQSPGTLSLSPGERATLSCRASQSVSRSYLAWYQQKPGQAPRFLIYGASSRATGIPDRFSGSGSGTDFTLTISRLEPEDFAVYYCQQYGTSPITFGQGTRLEIKGGSEGKSSGSGSESKSTGGSQVQLQESGPGLVKPSETLSLSCTVSGDSIRSYYWSWIRQPPGKGLEWIGYIYYSGTTNYKSSLKSRVTISLDTSKKQFSLNLDSVTAADTAVYYCARIGPAGFYFDYWGQGTLVTVSS
0.0668
DL3B572 (Fc fusion, also called DL3B409 scFv-Fc; not shown: wild-type IgG1 Fc domain) scFv: EVQLVQSGAEVKKPGASVKVSCKASGYTFTTYYIHWVRQAPGQGLEWMGIIDPSGGRTSYAQKFLGRVTMTRDTSTSTVYMELRSLRSEDTAVYYCARGGDGTWYYGMDVWGQGTTVTVSSGGSEGKSSGSGSESKSTGGSDIVMTQSPSFLSASVGDRVTITCRASQGISNYLAWYQQKPGKAPKLLIYAASTLQSGVPSRFSGSGSGTEFTLTISSLQPEDFATYYCQQLNSYPLTFGGGTKVEIK
2.32

DL3B571 (Fc fusion, also called DL3B358 scFv-Fc; not shown: wild-type IgG1 Fc domain) scFv: EIVLTQSPGTLSLSPGERATLSCRASQSASSYLAWYQQKPGQAPRLLIYGASSRATGIPDRFSGSGSGTDFTLTISRLEPEDFAVYYCQQYNSSPYTFGQGTKLEIKGGSEGKSSGSGSESKSTGGSQVQLVQSGAEVKKPGASVKVSCKASGHIFISYYIHWVRQAPGQGLEWMGIIDPSGGSKSYAQKFQGRVTMTRDTSTSTVYMELSSLRSEDTAVYYCARQGMIVGTTGDAFDIWGQGTMVTVSS yielded Kd of 0.0734
